These data points were gathered from the nanobody polyreactivity screen of Harvey et al. (2022).

Experiment: yeast display, Sf9 membrane polyspecificity reagent, FACS + sequencing; frameworks hold sequencing errors

SEQUENCE_INPUT	polyreactivity (PSR sort gate)
QVQLVESGGGIVQAGGSLRLSCAASVFTFSDYTMGWYRQAPGKERELVAAINRGGNTYYADSVKGRFTISRDNAKNTVYLQMNSLKPEDTALYYCAAASYYAPYYWGQCTQVTVSS	high polyreactivity
QVQLVESGGGLVQAGGSLRLSCAASGSIFAGNAMGWYRQSPGKERELVAAITWRSGRTYYADSVKGRFTISRDNAKNTVYLEMNSLKPEDTAVYYCARGRYGYTAPFRRWYFRYDYWGQGTQVTVSS	high polyreactivity
QVQLGESGGGLVQAGGTLRLTCAASGSIFNGNAMGGSRQAPGKERELVAAISRNGGSTYYAVSVKGRFTISRDNAKNTVYLQMNSQKPEDTAVYYCDTDLTVYYSYYWMYWGQGTQVTVSS	low polyreactivity
QVHHVESGGVLVQAGRILRVSCAASGSTFPRNAMGWYRHAPGKERELDAAITSRGGRTYYADSVKGRFTISRDNAKNTVYLQMISLKPEDTAVYYCARVGGIGSGRTGYGYWGQGSQVTVSS	high polyreactivity
QVQLVESGGGLVQAGGSLRLSCAASGLIFYRYAMGWYRQAPGKERELVATISSGGSTNYADSVKGRFTISRDNAKNTVYLQMNSLKPEDTAVYYCAASRWLYYYLFEYWGQGTQGTVSS	high polyreactivity
QVQLVESGGGLVQAGGSLRLSCAASGSTFPSYTMGWYRLAPGKERELVAAITLSGGSTYYADSVKGRFTISRDKAKNTVSLQMNSQKPEDTAVYYCAAYSQRGYDYWGQGTQVTVSS	low polyreactivity
QVQLVESGGGLVQAGGSLRLSCAASGRTFRIYAMGWYRQAPGKERELVAAITWGGGSTYYADSVKGRFTISRDNAKNTVYLQMNSLKPEDTAVYYCARVGWSWPRREKYNYWGQGTQVTVSS	high polyreactivity
QVQLVESGGGLVQAGGSLRLSCAASGSTFPSYAMGWYRPAPGKERELVAAINSGGGTNYADSVKGRFTISRDNAKNTVYLQMNSLKPEDTAVYYCAKSRYEYTKTEGGYWGQGTQVTVSS	low polyreactivity
QVQLVESGGGLVQAGGSLRLSCAASGRIFYAYAMGWYRQAPGKEREMVAAISKGGGSTYYADSVKGRFTISRDNAKNSVYLQMNSLKPEDTAVYYCNAQQYPYHIKYDYWGQGSQVTVSS	low polyreactivity
QVQLVESGGGLVQEGGCLRLSSAASGSIFKSNAMGWYRQAPGKERELVATISRIGGSTYYADSVKGRFTISRDNAKNTVYLQMNCLKPEDTAVYYFAARRYLYTVGYGPRRGLVYWGQGTQVTVSS	high polyreactivity
QVQLVESGGGLVQAGGSLRLSCAASGRTFRWNGMGWYRQAPGKERELVAVINRGGSTTYADSVKGRFTISRDNAKNTVYLQMNSLKPEDTAVYYCAKDHYYAGTWRYGYWGQGTQVTVSS	high polyreactivity
